target desc: Lysine-specific demethylase 4C (Homo sapiens)
assay explanation: GASC-1 (JMJD2C) histone demethylase inhibitors, dose response, biochemical, DELFIA europium, cherry-picked samples (AID 488835);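 also: signal is the H3K9me2 demethylation product detected by a dimethyl-specific antibody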
particulars: GST-JMJD2C(1-420), H3K9me3 demethylation; series mostly up to 6 µM
Hit rate of the full screen: of about 1,400 compounds, about 140 (10%) were called active. A selection follows. Entries with a potency or affinity are not part of this list.
endpoint: outcome

Solved entries:
compound | target desc | outcome
CC(C)CC(=O)Nc1ccccc1N1CCOCC1 | Lysine-specific demethylase 4C (Homo sapiens) | inactive
O=C(CC(=O)N/N=C/c1c(F)cccc1Cl)NCc1ccccc1 | Lysine-specific demethylase 4C (Homo sapiens) | inactive
COc1ccc(CCC(=O)Nc2sccc2C#N)cc1 | Lysine-specific demethylase 4C (Homo sapiens) | inactive
CCOC(=O)CNC(=O)CNC(=O)c1ccc(OC)cc1 | Lysine-specific demethylase 4C (Homo sapiens) | inactive
Cc1noc(C)c1C(=O)Nc1ccc2ccccc2c1 | Lysine-specific demethylase 4C (Homo sapiens) | inactive
COc1ccc(OC)c(C2=NOC(C(=O)NCCN3CCOCC3)C2)c1 (configuration not stated) | Lysine-specific demethylase 4C (Homo sapiens) | inactive
Cc1nnc2c(N3CCN(C(=O)c4ccco4)CC3)nc3ccccc3n12 | Lysine-specific demethylase 4C (Homo sapiens) | inactive
Cc1[nH]c2ccccc2c1-c1ccc(Cl)nn1 | Lysine-specific demethylase 4C (Homo sapiens) | inactive

Entry Cc1ccc(NC(=O)CSc2ncccn2)c([N+](=O)[O-])c1 has what outcome?
inactive

Cool, now Cc1ccc(Nc2c(-c3ccccn3)nc3cc(C)ccn23)cc1
inactive

Next up: O=c1oc2ccccc2c(O)c1C=NCc1ccccn1
inactive

Also CNC[C@@H]1Oc2ccc(NC(=O)Nc3cccc4ccccc34)cc2C(=O)N([C@@H](C)CO)C[C@@H]1C , if possible.
inactive
